Target: CDKs and other kinases (Homo sapiens, UniProt P06493)
Construct: other: CDK1B; residual activity (%) at 10 μM CDK1B; compound at 10 μM
Sequence (P06493 whole entry): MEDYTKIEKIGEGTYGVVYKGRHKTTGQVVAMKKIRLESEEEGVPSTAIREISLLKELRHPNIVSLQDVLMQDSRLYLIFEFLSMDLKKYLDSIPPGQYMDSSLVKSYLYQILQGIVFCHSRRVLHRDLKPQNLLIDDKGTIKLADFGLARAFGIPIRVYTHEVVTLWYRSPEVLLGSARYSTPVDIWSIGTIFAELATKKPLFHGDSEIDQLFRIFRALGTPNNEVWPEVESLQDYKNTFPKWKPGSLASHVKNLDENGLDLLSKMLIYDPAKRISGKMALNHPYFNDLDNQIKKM
Assay: Radiometric kinase assay (Eurofins Pharma Discovery or Reaction Biology Corporation Kinase Profiler)
Format: biochemical
Details: CDK1B; compound at 10 μM; read-out: residual activity (%) at 10 μM CDK1B
VALUE KIND: remaining activity at 10 µM (%)

input: Which remaining activity at 10 µM is reported for this molecule? COCCN[C@H]1CC[C@@H](Nc2ncc(C)c(-c3cnc4ccc(-c5ccccc5)cn34)n2)CC1
output: 25

input: Which remaining activity at 10 µM is reported for this molecule? Cc1cnc(N[C@H]2CN3CCC2CC3)nc1-c1cnc2ccc(Nc3cncnc3)cn12
output: 72

a: N[C@H]1CC[C@H](Nc2ncc(Cl)c(-c3cnc4cc(-c5ccccc5)ccn34)n2)CC1
b: N[C@H]1CC[C@H](Nc2ncc(F)c(-c3cnc4ccc(Nc5cncnc5)cn34)n2)CC1
input: Form field 'greater remaining activity at 10 µM' accepts a or b ; which applies? # respond with the chosen item's label
output: a
(a: 5%, b: 1%)

====

Tested on: leukemia cell lines
Test: Resazurin cell viability assay on leukemia cell lines (72 h growth inhibition, GI50)
Format: cell-based
Conditions: Homo sapiens, MV4-11 cells
VALUE KIND: GI50 (µM)

The examples below pair each entry with its known result.
input: Which GI50 is reported for this compound? N[C@H]1CC[C@H](Nc2ncc(F)c(-c3cnc4ccccn34)n2)CC1 [Compound 1]
output: 0.046

input: Which GI50 is reported for this compound? CN1CCC(Nc2ncc(F)c(-c3cnc4ccccn34)n2)CC1 [Compound 19]
output: 0.084

I: COc1ccc(-c2ccc3ncc(-c4nc(N[C@H]5CC[C@H](N)CC5)ncc4Cl)n3c2)cc1 [Compound 82]
II: Cc1cnc(N[C@H]2CC[C@H](N)CC2)nc1-c1cnc2ccc(-c3cccnc3)cn12 [Compound 29]
III: N[C@H]1CC[C@H](Nc2ncc(F)c(-c3cnc4ccc(NC(=O)c5ccc(F)cc5)cn34)n2)CC1 [Compound 51]
input: List the 3 entries from lowest GI50 to highest GI50 value. Form entry: ranked labels (order as requested).
output: III, I, II
(III: 0.001 µM, I: 0.054 µM, II: 0.101 µM)

====

Molecular target: CDK9/T1 (Homo sapiens)
Sequence (P50750 whole entry): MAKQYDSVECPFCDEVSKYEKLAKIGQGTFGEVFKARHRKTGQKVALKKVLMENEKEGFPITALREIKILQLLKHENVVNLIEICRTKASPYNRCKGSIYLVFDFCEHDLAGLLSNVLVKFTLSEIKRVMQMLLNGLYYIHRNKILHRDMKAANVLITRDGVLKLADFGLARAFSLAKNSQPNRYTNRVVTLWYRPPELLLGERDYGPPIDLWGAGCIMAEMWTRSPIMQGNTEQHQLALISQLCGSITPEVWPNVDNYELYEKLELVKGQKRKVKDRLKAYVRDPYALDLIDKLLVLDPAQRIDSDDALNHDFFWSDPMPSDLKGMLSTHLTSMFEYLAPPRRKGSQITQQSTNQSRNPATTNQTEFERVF
Sequence (O60563 whole entry partner): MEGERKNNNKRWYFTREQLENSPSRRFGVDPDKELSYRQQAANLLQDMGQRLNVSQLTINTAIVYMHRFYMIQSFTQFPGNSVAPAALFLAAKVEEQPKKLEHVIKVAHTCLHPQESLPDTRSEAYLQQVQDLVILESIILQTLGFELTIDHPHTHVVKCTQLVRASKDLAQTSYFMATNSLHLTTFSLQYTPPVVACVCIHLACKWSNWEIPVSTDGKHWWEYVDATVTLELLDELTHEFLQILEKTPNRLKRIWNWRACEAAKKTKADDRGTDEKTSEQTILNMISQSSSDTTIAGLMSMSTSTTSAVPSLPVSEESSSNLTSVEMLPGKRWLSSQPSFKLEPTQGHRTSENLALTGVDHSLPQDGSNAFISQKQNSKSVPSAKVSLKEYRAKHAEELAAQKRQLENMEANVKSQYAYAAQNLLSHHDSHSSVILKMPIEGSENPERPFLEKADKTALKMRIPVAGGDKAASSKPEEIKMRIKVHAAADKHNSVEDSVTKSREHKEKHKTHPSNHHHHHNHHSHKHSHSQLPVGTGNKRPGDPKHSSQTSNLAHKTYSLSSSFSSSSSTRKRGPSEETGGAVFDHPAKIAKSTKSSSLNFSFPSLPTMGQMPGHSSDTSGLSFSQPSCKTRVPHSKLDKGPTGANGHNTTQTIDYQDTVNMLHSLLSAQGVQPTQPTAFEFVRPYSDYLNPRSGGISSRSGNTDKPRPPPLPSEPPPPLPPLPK
Test: ADP Glo Kinase assay CDK9/T1
Format: biochemical
Conditions: CDK9T1; read-out: CDK inhibition, Ki (μM) CDK9T1
VALUE KIND: Ki (µM)

input: Which Ki is reported for this compound? Cc1cnc(NC2CCCC(N)C2)nc1-c1cnc2ccc(Nc3cccnc3)cn12 (centres unmarked) [Compound 95]
output: 0.198

input: Which Ki is reported for this compound? N[C@H]1CC[C@H](Nc2ncc(Cl)c(-c3cnc4c(-c5cccnc5)cc(C(F)(F)F)cn34)n2)CC1 [Compound 86]
output: 0.216

input: Which Ki is reported for this compound? Cc1cnc(N[C@H]2CC[C@H](N)CC2)nc1-c1cnc2ccc(Oc3cncnc3)cn12 [Compound 75]
output: 0.034

input: Which Ki is reported for this compound? Fc1cnc(N[C@H]2CC[C@H](NC3CCOCC3)CC2)nc1-c1cnc2ccccn12 [Compound 33]
output: 0.022

input: Which Ki is reported for this compound? CCOc1ccc(Nc2ccc3ncc(-c4nc(N[C@H]5CC[C@H](N)CC5)ncc4C)n3c2)cn1 [Compound 67]
output: 0.017

A: Cc1cnc(N[C@H]2CC[C@H](N)CC2)nc1-c1cnc2ccc(-c3c(C)noc3C)cn12 [Compound 59]
B: Cc1cnc(N[C@H]2CC[C@H](O)CC2)nc1-c1cnc2ccc(Nc3cccnc3)cn12 [Compound 106]
input: Form field 'greater Ki' accepts A or B ; which applies? # respond with the chosen item's label
output: A
(A: 0.072 µM, B: 0.042 µM)

====

Test system: leukemia cell lines
Assay: Resazurin cell viability assay on leukemia cell lines (72 h growth inhibition, GI50)
Type: cell-based
Conditions: Homo sapiens, MV4-11 cells
VALUE KIND: GI50 (µM)

The examples below pair each entry with its known result.
input: Which GI50 is reported for this compound? Cc1cnc(NC2CCC(F)(F)CC2)nc1-c1cnc2ccc(-c3ccccc3)cn12
output: 7

input: Which GI50 is reported for this compound? Fc1cnc(NC2CCN(CC3CCCC3)CC2)nc1-c1cnc2ccc(-c3ccccc3)cn12
output: 0.026

input: Which GI50 is reported for this compound? Cc1cnc(N[C@H]2CC[C@H](O)CC2)nc1-c1cnc2ccc(-c3ccccc3)cn12
output: 0.748

input: Which GI50 is reported for this compound? Cc1cnc(N[C@H]2CC[C@H](N)CC2)nc1-c1cnc2ccc(Nc3ccccn3)cn12
output: 0.068

input: Which GI50 is reported for this compound? N[C@H]1CC[C@H](Nc2ncc(F)c(-c3cnc4ccc(Nc5ccccc5)cn34)n2)CC1
output: 0.002

A: CS(=O)(=O)N1CCC(Nc2ncc(F)c(-c3cnc4ccccn34)n2)CC1
B: Cc1cnc(N[C@H]2CC[C@H](N)CC2)nc1-c1cnc2ccc(-c3ccoc3)cn12
input: Identify the item whose GI50 is the smaller number: A or B # respond with the chosen item's label
output: B

====

Biological target: CDK4/D1 (Homo sapiens)
Sequence (P11802 whole entry): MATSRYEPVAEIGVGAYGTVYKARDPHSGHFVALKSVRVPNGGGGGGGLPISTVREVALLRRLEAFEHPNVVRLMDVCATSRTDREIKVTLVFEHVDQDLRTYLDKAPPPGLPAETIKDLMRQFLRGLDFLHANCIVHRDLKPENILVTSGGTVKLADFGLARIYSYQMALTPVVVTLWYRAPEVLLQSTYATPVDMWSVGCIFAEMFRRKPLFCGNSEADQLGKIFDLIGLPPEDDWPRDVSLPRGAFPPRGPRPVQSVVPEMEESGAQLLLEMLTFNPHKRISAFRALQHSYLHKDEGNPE
Sequence (P24385 whole entry partner): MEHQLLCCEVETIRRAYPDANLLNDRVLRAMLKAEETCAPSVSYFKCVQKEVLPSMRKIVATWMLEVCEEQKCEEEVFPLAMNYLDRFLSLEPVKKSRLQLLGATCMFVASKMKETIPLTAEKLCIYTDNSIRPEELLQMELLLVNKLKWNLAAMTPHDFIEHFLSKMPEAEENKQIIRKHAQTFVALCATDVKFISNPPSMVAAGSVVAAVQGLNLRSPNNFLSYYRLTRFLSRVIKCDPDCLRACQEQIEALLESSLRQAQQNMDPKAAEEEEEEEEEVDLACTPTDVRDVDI
Test: ADP Glo Kinase assay CDK4/D1
Type: biochemical
Conditions: CDK4D1; compound at 10 μM; read-out: residual activity (%) at 10 μM CDK4D1
VALUE KIND: remaining activity at 10 µM (%)

input: Which remaining activity at 10 µM is reported for this molecule? Cc1cnc(N[C@H]2CC[C@H](O)CC2)nc1-c1cnc2ccc(-c3ccccc3)cn12
output: 93

1: Fc1cnc(N[C@H]2CC[C@H](Nc3ccccn3)CC2)nc1-c1cnc2ccc(-c3ccccc3)cn12
2: COC(=O)[C@H]1CC[C@H](Nc2ncc(C)c(-c3cnc4ccc(Nc5cncnc5)cn34)n2)CC1
3: N[C@H]1CC[C@H](Nc2ncc(Cl)c(-c3cnc4cc(-c5cccnc5)ccn34)n2)CC1
input: List the 3 entries from lowest remaining activity at 10 µM to highest remaining activity at 10 µM value. Form entry: ranked labels (order as requested).
output: 3, 2, 1

====

Target: CDK6/D3 (Homo sapiens, UniProt Q00534)
Sequence (Q00534 whole entry): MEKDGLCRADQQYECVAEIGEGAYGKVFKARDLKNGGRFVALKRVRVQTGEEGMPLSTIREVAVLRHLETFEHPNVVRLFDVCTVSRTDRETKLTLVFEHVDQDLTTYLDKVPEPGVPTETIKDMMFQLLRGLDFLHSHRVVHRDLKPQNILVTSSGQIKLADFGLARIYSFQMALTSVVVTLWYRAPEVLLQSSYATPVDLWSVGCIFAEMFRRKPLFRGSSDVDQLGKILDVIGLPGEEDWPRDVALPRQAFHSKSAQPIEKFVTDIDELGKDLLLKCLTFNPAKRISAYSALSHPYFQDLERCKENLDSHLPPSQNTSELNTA
Sequence (P30281 whole entry partner): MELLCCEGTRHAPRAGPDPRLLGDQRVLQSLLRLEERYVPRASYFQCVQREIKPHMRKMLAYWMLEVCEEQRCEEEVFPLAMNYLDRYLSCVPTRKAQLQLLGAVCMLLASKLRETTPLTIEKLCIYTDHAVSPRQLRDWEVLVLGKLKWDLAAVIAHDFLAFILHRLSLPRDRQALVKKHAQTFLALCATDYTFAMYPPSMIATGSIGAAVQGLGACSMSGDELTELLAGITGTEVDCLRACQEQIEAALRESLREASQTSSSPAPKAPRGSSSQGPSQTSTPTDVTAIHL
Assay: ADP Glo Kinase assay CDK6/D3
Type: biochemical
Conditions: CDK6D3; compound at 10 μM; read-out: residual activity (%) at 10 μM CDK6D3
VALUE KIND: remaining activity at 10 µM (%)

input: Which remaining activity at 10 µM is reported for this compound? CC(=O)NC1CCC(Nc2ncc(C)c(-c3cnc4ccc(Nc5cncnc5)cn34)n2)CC1 (stereo not shown)
output: 39

input: Which remaining activity at 10 µM is reported for this compound? CN(C)S(=O)(=O)c1ccc(-c2ccc3ncc(-c4nc(N[C@H]5CC[C@H](N)CC5)ncc4F)n3c2)cc1
output: 45

a: N[C@H]1CC[C@H](Nc2ncc(F)c(-c3cnc4ccc(Nc5ccccc5)cn34)n2)CC1
b: Cc1cnc(N[C@H]2CC[C@H](N)CC2)nc1-c1cnc2ccc(N(C)c3cccnc3)cn12
input: Form field 'greater remaining activity at 10 µM' accepts a or b ; which applies? # respond with the chosen item's label
output: b

====

Molecular target: CDKs and other kinases (Homo sapiens, UniProt P50613)
Construct: other: CDK7H; residual activity (%) at 10 μM CDK7H; compound at 10 μM
Sequence (P50613 whole entry): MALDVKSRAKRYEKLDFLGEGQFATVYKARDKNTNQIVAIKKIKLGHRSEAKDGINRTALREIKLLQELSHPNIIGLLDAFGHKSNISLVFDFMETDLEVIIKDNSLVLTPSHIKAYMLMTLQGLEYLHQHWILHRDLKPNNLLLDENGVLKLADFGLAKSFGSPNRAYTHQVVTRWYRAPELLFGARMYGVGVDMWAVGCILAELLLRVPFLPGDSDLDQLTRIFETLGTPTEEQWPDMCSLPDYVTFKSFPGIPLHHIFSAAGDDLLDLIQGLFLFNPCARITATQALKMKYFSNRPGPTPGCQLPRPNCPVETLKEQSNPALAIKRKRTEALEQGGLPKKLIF
Test: Radiometric kinase assay (Eurofins Pharma Discovery or Reaction Biology Corporation Kinase Profiler)
Type: biochemical
Conditions: CDK7H; compound at 10 μM; read-out: residual activity (%) at 10 μM CDK7H
VALUE KIND: remaining activity at 10 µM (%)

The examples below pair each entry with its known result.
input: Record lookup: for CDKs and other kinases (Homo sapiens, UniProt P50613), what remaining activity at 10 µM belongs to COc1ccc(Nc2ccc3ncc(-c4nc(N[C@H]5CC[C@H](N)CC5)ncc4C)n3c2)cn1 ?
output: 39

input: Record lookup: for CDKs and other kinases (Homo sapiens, UniProt P50613), what remaining activity at 10 µM belongs to Cc1cnc(N[C@H]2CC[C@H](O)CC2)nc1-c1cnc2ccc(-c3ccccc3)cn12 ?
output: 15

A: Cc1cnc(N[C@]23C[C@@]4(C)C[C@](C)(C[C@](O)(C4)C2)C3)nc1-c1cnc2ccc(Nc3cncnc3)cn12
B: Cc1cnc(N[C@H]2CC[C@H](C)CC2)nc1-c1cnc2ccc(Nc3cncnc3)cn12
input: Form field 'greater remaining activity at 10 µM' accepts A or B ; which applies? # respond with the chosen item's label
output: A

====

Biological target: CDKs and other kinases (Homo sapiens, UniProt P50613)
Construct: other: CDK7H; residual activity (%) at 10 μM CDK7H; compound at 10 μM
Experiment: Radiometric kinase assay (Eurofins Pharma Discovery or Reaction Biology Corporation Kinase Profiler)
Format: biochemical
Settings: CDK7H; compound at 10 μM; read-out: residual activity (%) at 10 μM CDK7H
VALUE KIND: remaining activity at 10 µM (%)

The examples below pair each entry with its known result.
input: Record lookup: for CDKs and other kinases (Homo sapiens, UniProt P50613), what remaining activity at 10 µM belongs to COc1cnc(N[C@H]2CC[C@H](N)CC2)nc1-c1cnc2ccccn12 ?
output: 26

input: Record lookup: for CDKs and other kinases (Homo sapiens, UniProt P50613), what remaining activity at 10 µM belongs to N[C@H]1CC[C@H](Nc2ncc(F)c(-c3cnc4ccc(NC(=O)c5ccc(F)cc5)cn34)n2)CC1 ?
output: 6

input: Record lookup: for CDKs and other kinases (Homo sapiens, UniProt P50613), what remaining activity at 10 µM belongs to COCCN[C@H]1CC[C@@H](Nc2ncc(C)c(-c3cnc4ccc(-c5ccccc5)cn34)n2)CC1 ?
output: 40

input: Record lookup: for CDKs and other kinases (Homo sapiens, UniProt P50613), what remaining activity at 10 µM belongs to N[C@H]1CC[C@H](Nc2ncc(Cl)c(-c3cnc4cc(-c5cccnc5)ccn34)n2)CC1 ?
output: 3

a: N[C@H]1CC[C@H](Nc2ncc(Cl)c(-c3cnc4ccc(NC(=O)c5ccccc5)cn34)n2)CC1
b: Cc1cnc(N2CCC3(CCNC3=O)CC2)nc1-c1cnc2ccccn12
c: Cc1cnc(N[C@H]2CC[C@H](N)CC2)nc1-c1cnc2ccc(Nc3cncc(C(F)(F)F)c3)cn12
d: CCOc1ccc(Nc2ccc3ncc(-c4nc(N[C@H]5CC[C@H](N)CC5)ncc4C)n3c2)cn1
input: List the 4 entries from lowest remaining activity at 10 µM to highest remaining activity at 10 µM value. Form entry: ranked labels (order as requested).
output: a, c, d, b
(a: 14%, c: 31%, d: 52%, b: 91%)

P: CCN[C@H]1CC[C@@H](Nc2ncc(C)c(-c3cnc4ccc(-c5ccccc5)cn34)n2)CC1
Q: Cc1cnc(NC2CCCC(N)C2)nc1-c1cnc2ccc(-c3ccccc3)cn12 (stereo not shown)
input: Identify the item whose remaining activity at 10 µM is the smaller number: P or Q # respond with the chosen item's label
output: Q
(Q: 10%, P: 40%)
